Sourced from patent US20030068675

# target_under_test: T1, ZFP SBS#1016 (synthetic)
# T1 chain: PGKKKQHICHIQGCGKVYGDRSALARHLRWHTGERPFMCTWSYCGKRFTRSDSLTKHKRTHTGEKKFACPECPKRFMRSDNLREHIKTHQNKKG
# assay_info: EMSA
# experimental_setup: tags: MBP fusion
measured_metric: Kd (nM)
Could you give me the number in nM? Just the number is fine.

Entry CAGTTGGTC (dsDNA) DNA 1: CAGTTGGTC DNA 2: GACCAACTG : reported Kd = ?
0.09
